Provide the reported t1/2 of each item.
# tgt: T1, recombinant RSV protein G, G(B): residues 66-292 of strain 18537 (human respiratory syncytial virus …, UniProt P20896 66-292)
# T1 construct: also called soluble recombinant G protein; recombinant protein G
# T1 sequence: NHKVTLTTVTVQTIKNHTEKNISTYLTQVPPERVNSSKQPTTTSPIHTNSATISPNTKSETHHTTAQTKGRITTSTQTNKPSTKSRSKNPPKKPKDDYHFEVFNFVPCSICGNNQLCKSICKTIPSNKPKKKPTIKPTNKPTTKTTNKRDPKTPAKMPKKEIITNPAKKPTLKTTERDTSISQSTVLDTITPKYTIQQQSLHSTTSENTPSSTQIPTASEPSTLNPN
# experimentalProtocol: SPR Biacore 3000, Fab over amine-coupled recombinant protein G
Answer with a number only, understood to be in min.

Recorded t1/2 (binder Fab fragment of antibody 796 (Fab, also called Fab clone 796) VH: QVQLVESGGGVVQPGRSLRLSCAASGFSFSHFGMHWVRQVPGKGLEWVAIISYDGNNVHYADSVKGRFTISRDNSKNTLFLQMNSLRDDDTGVYYCAKDDVATDLAAYYYFDVWGRGTLVTVSS light: DIVMTQTPLSLSVTPGQPASISCRSSQSLLRSDGKTFLYWYLQKPGQSPQPLMYEVSSRFSGVPDRFSGSGSGADFTLNISRVETEDVGIYYCMQGLKIRRTFGPGTKVEIKRTVAAPSVFIFPPSDEQLKSGTASVVCLLNNFYPREAKVQWKVDNALQSGNSQESVTEQDSKDSTYSLSSTLTLSKADYEKHKVYACEVTHQGLSSPVTKSFNRGEC ): 28.7

Entry Fab fragment of antibody 853 (Fab, also called Fab clone 853) VH: EVQLVQSGAEVKKPGQSLKISCKTSGYIFTNYWIGWVRQRPGKGLEWMGVIFPADSDARYSPSFQGQVTISADKSIGTAYLQWSSLKASDTAIYYCARPKYYFDSSGQFSEMYYFDFWGQGTLVTVSS light: EIVLTQSPGTLSLSPGERATLSCRASQSVSSNYLAWYQQKPGQAPRLLIYGASSRAAGMPDRFSGSGSGTDFTLTISRLEPEDFAVYYCQQYGNSPLTFGGGTEVEIKRTVAAPSVFIFPPSDEQLKSGTASVVCLLNNFYPREAKVQWKVDNALQSGNSQESVTEQDSKDSTYSLSSTLTLSKADYEKHKVYACEVTHQGLSSPVTKSFNRGEC ; t1/2 = 8.25
